B1: KCNAB2 (parent)
chain: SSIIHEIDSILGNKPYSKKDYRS

# Variants of: B1
# TEST_DESCRIPTION: protein stability index of a GFP-peptide fusion (GPS, HEK-293T) (PSI 1-6); higher = more stable;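 also: lentivirally expressed fusions sorted by FACS into six bins by GFP to DsRed ratio, PSI derived from sequencing read proportions per bin multiplied by bin number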
# CONDITION_LABEL: c terminus: native
RESULT_TYPE: protein stability index
Answer with the value's number alone.

# MUT, protein stability index
rows = [
    ("K19S", 3.92),
    ("R22H", 4.39),
    ("I3Q", 2.53),
    ("D20Y", 2.07),
    ("D20I", 2.41),
    ("N13C", 2.25),
    ("H5T", 3.6),
    ("N13L", 2.47),
    ("I3L", 2.9),
    ("S17L", 2.93),
]

Summary for this variant, Y16C : protein stability index is 3.55

Recorded result, K18F , protein stability index: 2.32
